Tested on: Streptococcus sp. 'group B'
PROTOCOL_NOTES: Antibacterial activity against Beta-hemolytic Streptococcus group B assessed as susceptible isolates by CLSI broth microdilution method
Assay type: functional
Kindly supply the reported Activity values for the records listed here.
Kindly provide the numeric value in % only, without the unit symbol.

Task: Can you look up the measured Activity of CN(C)[C@@H]1C(O)=C(C(N)=O)C(=O)[C@@]2(O)C(O)=C3C(=O)c4c(O)cccc4[C@@](C)(O)[C@H]3C[C@@H]12 [TETRACYCLINE] for me?
Output: 21.6

Task: Query: Activity; subject: CC[C@H]1OC(=O)[C@H](C)[C@@H](O[C@H]2C[C@@](C)(OC)[C@@H](O)[C@H](C)O2)[C@H](C)[C@@H](O[C@@H]2O[C@H](C)C[C@H](N(C)C)[C@H]2O)[C@](C)(O)C[C@@H](C)C(=O)[C@H](C)[C@@H](O)[C@]1(C)O [ERYTHROMYCIN]
Output: 73

Task: Field request: Activity | item: C[C@H]1COc2c(N3CCN(C)CC3)c(F)cc3c(=O)c(C(=O)O)cn1c23.C[C@H]1COc2c(N3CCN(C)CC3)c(F)cc3c(=O)c(C(=O)O)cn1c23.O [LEVOFLOXACIN]
Output: 99.5

Task: Need Activity of CC(=O)NC[C@H]1CN(c2ccc(N3CCOCC3)c(F)c2)C(=O)O1 [LINEZOLID] , thanks.
Output: 100

Task: May I ask what Activity has been recorded for CN[C@H](CC(C)C)C(=O)N[C@H]1C(=O)N[C@@H](CC(N)=O)C(=O)N[C@H]2C(=O)N[C@H]3C(=O)N[C@H](C(=O)N[C@H](C(=O)O)c4cc(O)cc(O)c4-c4cc3ccc4O)[C@H](O)c3ccc(c(Cl)c3)Oc3cc2cc(c3O[C@@H]2O[C@H](CO)[C@@H](O)[C@H](O)[C@H]2O[C@H]2C[C@](C)(N)[C@H](O)[C@H](C)O2)Oc2ccc(cc2Cl)[C@H]1O [VANCOMYCIN] ?
Output: 100

Task: Fill in the blank: the reported Activity of CCC[C@@H]1C[C@@H](C(=O)N[C@@H]([C@H]2O[C@H](SC)[C@H](O)[C@@H](O)[C@H]2O)[C@H](C)Cl)N(C)C1 [CLINDAMYCIN] is ____.
Output: 88.7

Task: Could you tell me which Activity is on file for CC1(C)S[C@@H]2[C@H](NC(=O)Cc3ccccc3)C(=O)N2[C@H]1C(=O)O [PENICILLIN G] ?
Output: 100

---

Test system: Streptococcus sp. 'group A'
PROTOCOL_NOTES: Antibacterial activity against Beta-hemolytic Streptococcus group A assessed as susceptible isolates by CLSI broth microdilution method
Assay type: functional
RESULT_TYPE: Activity

Task: Given the compound CN[C@H](CC(C)C)C(=O)N[C@H]1C(=O)N[C@@H](CC(N)=O)C(=O)N[C@H]2C(=O)N[C@H]3C(=O)N[C@H](C(=O)N[C@H](C(=O)O)c4cc(O)cc(O)c4-c4cc3ccc4O)[C@H](O)c3ccc(c(Cl)c3)Oc3cc2cc(c3O[C@@H]2O[C@H](CO)[C@@H](O)[C@H](O)[C@H]2O[C@H]2C[C@](C)(N)[C@H](O)[C@H](C)O2)Oc2ccc(cc2Cl)[C@H]1O [VANCOMYCIN] , what is its reported Activity?
Output: 100%

Task: Could you tell me which Activity is on file for CC(=O)NC[C@H]1CN(c2ccc(N3CCOCC3)c(F)c2)C(=O)O1 [LINEZOLID] ?
Output: 100%

Task: Sample CC1(C)S[C@@H]2[C@H](NC(=O)Cc3ccccc3)C(=O)N2[C@H]1C(=O)O [PENICILLIN G] — what was its Activity?
Output: 100%

Task: What measured Activity goes with CN(C)[C@@H]1C(O)=C(C(N)=O)C(=O)[C@@]2(O)C(O)=C3C(=O)c4c(O)cccc4[C@@](C)(O)[C@H]3C[C@@H]12 [TETRACYCLINE] ?
Output: 90.2%

Task: # lookup: Activity of CCC[C@@H]1C[C@@H](C(=O)N[C@@H]([C@H]2O[C@H](SC)[C@H](O)[C@@H](O)[C@H]2O)[C@H](C)Cl)N(C)C1 [CLINDAMYCIN]
Output: 96.4%

---

Test system: Enterococcus faecalis
PROTOCOL_NOTES: Antibacterial activity against Enterococcus faecalis assessed as susceptible isolates by CLSI broth microdilution method
Type: functional
Exercise: for every item that follows, state its recorded Activity.
Give a bare numeral; the unit % is implied.

Task: State the recorded Activity for this entry: C[C@H]1COc2c(N3CCN(C)CC3)c(F)cc3c(=O)c(C(=O)O)cn1c23.C[C@H]1COc2c(N3CCN(C)CC3)c(F)cc3c(=O)c(C(=O)O)cn1c23.O
Output: 65.2

Task: What does the record list as Activity for CC[C@H]1OC(=O)[C@H](C)[C@@H](O[C@H]2C[C@@](C)(OC)[C@@H](O)[C@H](C)O2)[C@H](C)[C@@H](O[C@@H]2O[C@H](C)C[C@H](N(C)C)[C@H]2O)[C@](C)(O)C[C@@H](C)C(=O)[C@H](C)[C@@H](O)[C@]1(C)O ?
Output: 13.5

Task: I'd like to know its Activity. The compound in question is CC1(C)S[C@@H]2[C@H](NC(=O)[C@H](N)c3ccccc3)C(=O)N2[C@H]1C(=O)O
Output: 100

---

Tested on: Enterococcus faecalis
PROTOCOL_NOTES: Antibacterial activity against Enterococcus faecalis assessed as susceptible isolates by CLSI broth microdilution method
Assay type: functional
Provide the reported Activity of each item.
All answers are understood in %, so give the number only.

Task: Given the compound CN[C@H](CC(C)C)C(=O)N[C@H]1C(=O)N[C@@H](CC(N)=O)C(=O)N[C@H]2C(=O)N[C@H]3C(=O)N[C@H](C(=O)N[C@H](C(=O)O)c4cc(O)cc(O)c4-c4cc3ccc4O)[C@H](O)c3ccc(c(Cl)c3)Oc3cc2cc(c3O[C@@H]2O[C@H](CO)[C@@H](O)[C@H](O)[C@H]2O[C@H]2C[C@](C)(N)[C@H](O)[C@H](C)O2)Oc2ccc(cc2Cl)[C@H]1O [VANCOMYCIN] , what is its reported Activity?
Output: 97.7

Task: Can you share its Activity? I mean this compound: CC(=O)NC[C@H]1CN(c2ccc(N3CCOCC3)c(F)c2)C(=O)O1 [LINEZOLID]
Output: 100

Task: Which value of Activity has been reported for CN(C)[C@@H]1C(O)=C(C(N)=O)C(=O)[C@@]2(O)C(O)=C3C(=O)c4c(O)cccc4[C@@](C)(O)[C@H]3C[C@@H]12 [TETRACYCLINE] in the records?
Output: 28.4
